Data provenance: ChEMBL document CHEMBL1201862

# Test system: NCI-H23
# test_details: NCI tumour cell line growth inhibition, 48 h
Active and inactive are the calls of the source. Cut-off read from the data, not from the text of the source: active = GI50 up to about 1.1 µM and inactive = higher.
Please answer using one outcome listed in class 1 = active, class 0 = inactive

Query: Identify the outcome logged in this assay for the compound shown: COc1ccc(C[C@H]2NC(=O)/C=C/C[C@@H]([C@H](C)[C@H]3O[C@@H]3c3ccccc3)OC(=O)[C@H](CC(C)C)OC(=O)[C@H](C)CNC2=O)cc1
Result: class 1

Query: How was N#Cc1c(NC(=S)Nc2ccc(Cl)cc2)sc2c1CCN(N1CCc3c(sc(NC(=S)Nc4ccc(Cl)cc4)c3C#N)C1)C2 classified in this test?
Result: class 0

Query: Write down the call the test reported for this compound. Item: COc1ccc2c(c1)-c1c(c3ccccc3n1CCN1CCCCC1)CC2
Result: class 0

Query: For CCOc1cc(C2CC(c3ccc(NS(=O)(=O)c4cc([N+](=O)[O-])ccc4C)cc3)=NN2S(=O)(=O)c2cc([N+](=O)[O-])ccc2C)ccc1O (stereo not drawn) , which call appears in the assay record?
Result: class 0

Query: Please indicate how the test categorized CC(C)(C)C1=CC(O)(c2c3ccccc3c(C3(O)C=C(C(C)(C)C)C(=O)C(C(C)(C)C)=C3)c3ccccc23)C=C(C(C)(C)C)C1=O .
Result: class 0

Query: Hi, sorry to bother you, what did the test record for O=c1c(Cc2cccc(Cc3c(O)oc4ccccc4c3=O)c2)c(O)oc2ccccc12 ?
Result: class 0

Query: Give the logged outcome of this assay for the following compound: COc1ccc(/N=C(/C[S+]([O-])c2ccc(C)cc2)C(F)(F)F)cc1 (stereo not drawn)
Result: class 0

Query: Which outcome did this test record for the compound COc1ccc(C2C3=C(COC3=O)Oc3cc4c(cc32)OCO4)cc1OC (stereo not drawn) ?
Result: class 0

Query: # outcome recorded in this test, key = Cc1ccc(NC(=O)c2cccc([N+](=O)[O-])c2O)c([N+](=O)[O-])c1
Result: class 0

Query: Kindly provide the recorded test outcome for the following compound: O=C(c1cc(O)ccc1O)c1ccccc1C(Cl)(Cl)Cl
Result: class 0

Query: What did the test return for COc1ccc(/N=N/c2c(-c3c(OC)cc4occc4c3OC)[nH]c(=O)c(C#N)c2C)cc1 ?
Result: class 0

Query: Kindly provide the recorded test outcome for the following compound: C=C(Cl)C(Cl)(CBr)CCC(Cl)C(C)(C)Cl (stereo not drawn)
Result: class 0

Query: Which outcome was assigned to Cc1ccc(C)c(NC(=O)C(Cc2c[nH]c3ccccc23)NC(=O)OCc2ccccc2)c1 (stereo not drawn) in this test?
Result: class 0

Query: Per the records of this test, what outcome belongs to O=C1N2CCN=C2c2ccccc2C1(O)c1ccccc1 (stereo not drawn) ?
Result: class 0

Query: Record lookup: outcome of this test for COC(=O)N/N=C(/Cc1occc(=O)c1O)C(=O)Nc1ccc([N+](=O)[O-])cc1[N+](=O)[O-] ?
Result: class 0

Query: Lab log entry: CCCN(CCC)C1CC(n2cc(C)c(=O)[nH]c2=O)OC1CO (stereo not drawn) — outcome as called in the assay?
Result: class 0

Query: Recorded call for CN(CCO)CCC1COc2ccccc2O1 (stereo not drawn) ?
Result: class 0

Query: Hi team, can someone confirm the assay call for CN(CCC(=O)N1CC(CCl)c2ccc([N+](=O)[O-])cc21)CCC(=O)N1CC(CCl)c2ccc([N+](=O)[O-])cc21 (stereo not drawn) ?
Result: class 0
